target: recombinant ROCK2 (amino acids 1-552) (Homo sapiens (Human), UniProt O75116); experiment: Z'-lyte kinase assay, ROCK2
Sequence (O75116 1-552): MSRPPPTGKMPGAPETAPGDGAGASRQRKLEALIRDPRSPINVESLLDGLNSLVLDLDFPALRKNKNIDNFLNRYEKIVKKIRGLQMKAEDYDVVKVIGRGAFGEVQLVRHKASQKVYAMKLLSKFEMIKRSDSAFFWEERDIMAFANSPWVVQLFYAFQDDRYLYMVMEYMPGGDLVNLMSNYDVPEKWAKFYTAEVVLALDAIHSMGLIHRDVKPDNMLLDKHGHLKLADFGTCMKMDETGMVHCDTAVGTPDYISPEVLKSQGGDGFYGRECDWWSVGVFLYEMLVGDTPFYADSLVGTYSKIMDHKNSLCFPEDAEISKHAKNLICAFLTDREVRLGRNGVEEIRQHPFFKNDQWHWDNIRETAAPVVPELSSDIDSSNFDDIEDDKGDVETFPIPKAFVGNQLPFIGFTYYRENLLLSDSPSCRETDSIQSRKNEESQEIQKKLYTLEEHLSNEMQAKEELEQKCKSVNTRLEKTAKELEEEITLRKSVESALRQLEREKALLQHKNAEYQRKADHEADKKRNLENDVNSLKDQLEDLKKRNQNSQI
ENDPOINT: IC50
Please answer in the form of a number followed by its unit of measurement.

Example cases with answers are listed next.
• CN[C@H](C(=O)Nc1ccc(-c2cn[nH]c2)cc1)c1cccc(OC)c1 [Example 4] = 3 nM
• COc1cccc(C(NCCN2CCCC2)C(=O)Nc2ccc(-c3cn[nH]c3)cc2)c1 (stereo not shown) [Example 52] = 17 nM
• CNC(C(=O)Nc1cc(F)c(-c2cn[nH]c2)cc1OCCCN(C)C)c1cccc(OC)c1 (stereo not shown) [Example 70] = 7.7 nM

Query :: I am curious: what IC50 value has been reported for CN[C@H](C(=O)Nc1cc(F)c(-c2cn[nH]c2)cc1OCCN(C)C)c1cccc(OC)c1 [Example 73] ?
Result :: 1.6 nM

Query :: Endpoint output: IC50 of COCCNC(C(=O)Nc1ccc(-c2cn[nH]c2)c(F)c1)c1cccc(OC)c1 (stereo not shown) [Example 55] . Value?
Result :: 17 nM

Query :: What does the record list as IC50 for COCC(C)(C)NC(C(=O)Nc1ccc(-c2cn[nH]c2)cc1)c1cccc(OC)c1 (stereo not shown) [Example 43] ?
Result :: 47 nM

Query :: Report IC50 for CNC(C(=O)Nc1ccc(-c2cn[nH]c2)cc1)c1cccc(C(=O)O)c1 (stereo not shown) [Example 32] please.
Result :: 31 nM

Query :: Can you look up the measured IC50 of CCNC(C(=O)Nc1ccc(-c2cn[nH]c2)cc1)c1ccc(F)cc1 (stereo not shown) [Example 12] for me?
Result :: 30 nM

Query :: State the recorded IC50 for this entry: CCOCCNC(C(=O)Nc1ccc(-c2cn[nH]c2)cc1)c1cccc(OC)c1 (stereo not shown) [Example 37]
Result :: 37 nM

Query :: Need IC50, item CNC(C(=O)Nc1ccc(-c2cn[nH]c2)cc1)c1ccc2c(C)n[nH]c2c1 (stereo not shown) [Example 33]
Result :: 29 nM

Query :: Fill in the blank: the reported IC50 of COc1cccc(C(NCCN(C)C)C(=O)Nc2ccc(-c3cn[nH]c3)cc2)c1 (stereo not shown) [Example 57] is ____.
Result :: 10 nM

---

assay: Brain and plasma concentrations in mouse by HPLC/MS/MS; format: in vivo; settings: brain/plasma, 2.5 mg/kg IV, 2 hr, read-out: Mean Brain/Plasma Ratio at 2 hr
ENDPOINT: Kp at 2 h
Simply state the number, no unit and no words.

Query :: // Kp at 2 h lookup, key: CNC(C(=O)Nc1ccc(-c2cn[nH]c2)cc1)c1cccc(OC)c1 (stereo not shown)
Result :: 2.99

---

molecular target: recombinant ROCK1 (amino acids 1-535) (Homo sapiens (Human)); assay: Z'-lyte kinase assay, ROCK1
Sequence (Q13464 1-535): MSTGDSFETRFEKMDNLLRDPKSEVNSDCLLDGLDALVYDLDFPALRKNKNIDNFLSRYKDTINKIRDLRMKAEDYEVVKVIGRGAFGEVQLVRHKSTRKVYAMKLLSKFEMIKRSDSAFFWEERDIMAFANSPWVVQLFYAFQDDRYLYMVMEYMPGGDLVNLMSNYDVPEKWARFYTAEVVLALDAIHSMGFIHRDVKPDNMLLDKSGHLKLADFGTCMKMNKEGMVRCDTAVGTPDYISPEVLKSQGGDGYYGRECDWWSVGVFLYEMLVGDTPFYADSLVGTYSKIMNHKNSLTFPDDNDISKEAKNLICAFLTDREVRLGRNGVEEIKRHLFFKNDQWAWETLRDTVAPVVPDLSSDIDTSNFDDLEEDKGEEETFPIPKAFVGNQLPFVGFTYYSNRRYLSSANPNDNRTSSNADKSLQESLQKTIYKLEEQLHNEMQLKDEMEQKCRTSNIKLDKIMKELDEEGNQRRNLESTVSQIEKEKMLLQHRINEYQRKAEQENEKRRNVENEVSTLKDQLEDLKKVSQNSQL
Each record here notes measured log10 of IC50.
Quick note: numbers are log10 of IC50, with nM as the unit.

* COCCN[C@@H](C(=O)Nc1ccc(-c2cn[nH]c2)cc1)c1cccc(OC)c1 | 1.76
* COc1cccc([C@@H](NCCN(C)C)C(=O)Nc2ccc(-c3cn[nH]c3)cc2)c1 | 0.89
* CNC(C(=O)Nc1ccc(-c2cn[nH]c2)cc1)c1ccc2c(C)n[nH]c2c1 (centres unmarked) | 1.93

Query :: What does the record list as log10 of IC50 for CNCCN[C@@H](C(=O)Nc1ccc(-c2cn[nH]c2)cc1)c1cccc(OC)c1 ?
Result :: 0.48

Query :: Quick check: log10 of IC50 of CNC(C(=O)Nc1ccc(-c2cn[nH]c2)cc1)c1ccccc1OC (centres unmarked) ?
Result :: 1.08

Query :: Could you share which log10 of IC50 value was measured for CNCCN[C@H](C(=O)Nc1ccc(-c2cn[nH]c2)cc1)c1cccc(OC)c1 ?
Result :: 1.91

Query :: // returns reported log10 of IC50 for input COc1cccc([C@H](NCCN(C)C)C(=O)Nc2ccc(-c3cn[nH]c3)cc2)c1
Result :: 2.41

Query :: What measured log10 of IC50 goes with CNC(C(=O)Nc1cc(OC)c(-c2cn[nH]c2)cc1F)c1cccc(OC)c1 (centres unmarked) ?
Result :: 1.75

meta.source: patent US11479533B2
